# Test system: L1210 leukemia ip in BDF1 mice, survival T/C
# procedureText: NCI In Vivo Anticancer Drug Screen. Data for tumor model L1210 Leukemia (intraperitoneal) in B6D2F1 (BDF1) mice
# conditionContext: endpoint: mean survival time; dose: 25.0 mg/kg/injection; schedule: Q01DX009 (ip); vehicle: Klucel (hydroxypropylcellulose) (HPC); higher = longer survival
Toxic doses and inconclusive results are not listed.
metric: T/C

Exercise: Please state recorded T/C (tested on L1210 leukemia ip in BDF1 mice, survival T/C) of CC1CC(N2CSC(=S)N(C3CC(C)CC(C)(C)C3)C2)CC(C)(C)C1 (stereo not drawn)
Solution: 93 % of control
